System: SW-620
test name: NCI60 five-dose screen
Assay type: cell-based
condition label: Homo sapiens; SW-620, colon cancer
measured attribute: log10 of GI50 (log10 of the value in nM)

compound | measured attribute | experimental result
CCOC(=O)c1ccc(/C=N/NC(=O)c2[nH]c3ccc(Br)cc3c2-c2ccccc2)[nH]1 [Derivative 3i] | log10 of GI50 | 3.59
Cc1cc(C)c(/C=N/NC(=O)c2[nH]c3ccc(Br)cc3c2-c2ccccc2)[nH]1 [Derivative 3c] | log10 of GI50 | 3.49
O=C(N/N=C/c1ccc([N+](=O)[O-])[nH]1)c1[nH]c2ccc(Br)cc2c1-c1ccccc1 [Derivative 3p] | log10 of GI50 | 2.40
CCc1c[nH]c(/C=N/NC(=O)c2[nH]c3ccc(Br)cc3c2-c2ccccc2)c1 [Derivative 3t] | log10 of GI50 | 2.63
O=C(N/N=C/c1cc(Br)c[nH]1)c1[nH]c2ccc(Br)cc2c1-c1ccccc1 [Derivative 3e] | log10 of GI50 | 2.61
O=C(N/N=C/c1cc(Cl)c[nH]1)c1[nH]c2ccc(Br)cc2c1-c1ccccc1 [Derivative 3h] | log10 of GI50 | 2.52

###

Test system: SR
Threshold-based label: GI50 under 400 nM gives class 1, GI50 not under 400 nM gives class 0.

chemical smiles | measured target | label class
Cc1[nH]c(/C=N/NC(=O)c2[nH]c3ccc(Br)cc3c2-c2ccccc2)c(C)c1[N+](=O)[O-] | SR | class 0
CCc1c[nH]c(/C=N/NC(=O)c2[nH]c3ccc(Br)cc3c2-c2ccccc2)c1 | SR | class 0
CCc1cc[nH]c1/C=N/NC(=O)c1[nH]c2ccc(Br)cc2c1-c1ccccc1 | SR | class 0
O=C(N/N=C/c1ccc([N+](=O)[O-])[nH]1)c1[nH]c2ccc(Br)cc2c1-c1ccccc1 | SR | class 1
O=C(N/N=C/c1cc(Cl)c[nH]1)c1[nH]c2ccc(Br)cc2c1-c1ccccc1 | SR | class 1
O=C(N/N=C/c1ccc[nH]1)c1[nH]c2ccc(Br)cc2c1-c1ccccc1 | SR | class 1
CCc1ccc(/C=N/NC(=O)c2[nH]c3ccc(Br)cc3c2-c2ccccc2)[nH]1 | SR | class 0
CCOC(=O)c1c[nH]c(/C=N/NC(=O)c2[nH]c3ccc(Br)cc3c2-c2ccccc2)c1 | SR | class 0

###

Collected CC50 values appear next to each entry.
Tested on: OVCAR-5
test name: NCI60 five-dose screen
Format: cell-based
condition label: Homo sapiens; OVCAR-5, ovarian cancer; read-out: LC50 (the source's name)

chemical smiles | CC50
O=C(N/N=C/c1cc([N+](=O)[O-])c[nH]1)c1[nH]c2ccc(Br)cc2c1-c1ccccc1 | > 100 µM
Cn1cccc1/C=N/NC(=O)c1[nH]c2ccc(Br)cc2c1-c1ccccc1 | > 100 µM
O=C(N/N=C/c1cc[nH]c1)c1[nH]c2ccc(Br)cc2c1-c1ccccc1 | 38.5 µM
O=C(N/N=C/c1ccc(C(=O)N2CCOCC2)[nH]1)c1[nH]c2ccc(Br)cc2c1-c1ccccc1 | > 100 µM

###

Tested on: OVCAR-8
test name: NCI60 five-dose screen
Format: cell-based
condition label: Homo sapiens; OVCAR-8, ovarian cancer
GI50 values for the compounds below.

chemical smiles | unit abbreviation | GI50
Cc1cc(C)c(/C=N/NC(=O)c2[nH]c3ccc(Br)cc3c2-c2ccccc2)[nH]1 | nM | 3100
O=C(N/N=C/c1cc(Br)c[nH]1)c1[nH]c2ccc(Br)cc2c1-c1ccccc1 | nM | 304
CCOC(=O)c1cc(/C=N/NC(=O)c2[nH]c3ccc(Br)cc3c2-c2ccccc2)c[nH]1 | nM | 3650
CCc1ccc(/C=N/NC(=O)c2[nH]c3ccc(Br)cc3c2-c2ccccc2)[nH]1 | nM | 337
